FYI, the data here is from PubChem BioAssay AID2060601.

The entries below come with measured pIC50 values attached.
Test system: 874868-142-R-J2-PDC complex spheroids, growth % test/control
experiment description: Anticancer human tumor 874868-142-R-J2-PDC patient-derived head and neck squamous carcinoma cell line growth inhibition [CLK]
test settings: curve of first compound; second compound 10 µM
pIC50: −log10 of the molar value.
quantity kind: pIC50

NC(=O)C(=Cn1cnc(-c2cc(C(F)(F)F)cc(C(F)(F)F)c2)n1)c1cncnc1 + CN1CCN(c2cc(C(=O)Nc3cc4cc(-c5cnn(C)c5)ccc4cn3)ccn2)CC1 ... > 8.02
O=C(c1cc(Cc2n[nH]c(=O)c3ccccc23)ccc1F)N1CCN(C(=O)C2CC2)CC1 + CNC(=O)c1ccc(Nc2nc(OC3CCCC3)c3c(-c4ccc5nc(C)oc5c4)c[nH]c3n2)c(OC)c1 ... > 7.50
CC(=O)O[C@H]1C(=O)[C@@]2(C)[C@H]([C@H](OC(=O)c3ccccc3)[C@]3(O)C[C@H](OC(=O)[C@H](O)[C@@H](NC(=O)c4ccccc4)c4ccccc4)C(C)=C1C3(C)C)[C@]1(OC(C)=O)CO[C@@H]1C[C@@H]2O + CN1CCN(c2cc(C(=O)Nc3cc4cc(-c5cnn(C)c5)ccc4cn3)ccn2)CC1 ... > 7.50
CC(CO)NC(=O)c1cc(-c2ccc(Cl)cc2)nn(-c2cnn(C)c2)c1=O (stereo not given) + CNC(=O)c1ccc(Nc2nc(OC3CCCC3)c3c(-c4ccc5nc(C)oc5c4)c[nH]c3n2)c(OC)c1 ... > 7.50
C=CC(=O)Nc1cc(Nc2nccc(-c3cn(C)c4ccccc34)n2)c(OC)cc1N(C)CCN(C)C + CN1CCN(c2cc(C(=O)Nc3cc4cc(-c5cnn(C)c5)ccc4cn3)ccn2)CC1 ... > 9.02

* * *

System: 874868-142-R-J2-PDC complex spheroids, growth % test/control
experiment description: Anticancer human tumor 874868-142-R-J2-PDC cell line growth inhibition [CLK]; active = viability on the fitted dose curve at most 10% of control; inactive = the rest;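 note: spheroids exposed to the compounds for 7 days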
test settings: second compound 1 µM; first compound 1 µM
Outcome codes: label 1 (active), label 0 (inactive)

COc1ccc([C@@H](O)c2cc(-c3ncnc4cc(N5CCOCC5)ccc34)c(F)cc2Cl)nn1 + CN1CCN(c2cc(C(=O)Nc3cc4cc(-c5cnn(C)c5)ccc4cn3)ccn2)CC1 ... label 1
Nc1ccn(C2OC(CO)C(O)C2(F)F)c(=O)n1 (stereo not given) + CN1CCN(c2cc(C(=O)Nc3cc4cc(-c5cnn(C)c5)ccc4cn3)ccn2)CC1 ... label 1
CCN1CCN(Cc2ccc(Nc3ncc(F)c(-c4cc(F)c5nc(C)n(C(C)C)c5c4)n3)nc2)CC1 + CN1CCN(c2cc(C(=O)Nc3cc4cc(-c5cnn(C)c5)ccc4cn3)ccn2)CC1 ... label 1
C#Cc1c(F)ccc2cc(O)cc(-c3ncc4c(N5CC6CCC(C5)N6)nc(OCC56CCCN5CC(F)C6)nc4c3F)c12 (stereo not given) + CN1CCN(c2cc(C(=O)Nc3cc4cc(-c5cnn(C)c5)ccc4cn3)ccn2)CC1 ... label 1
CCN1CCN(Cc2ccc(Nc3ncc(F)c(-c4cc(F)c5nc(C)n(C(C)C)c5c4)n3)nc2)CC1 + CNC(=O)c1ccc(Nc2nc(OC3CCCC3)c3c(-c4ccc5nc(C)oc5c4)c[nH]c3n2)c(OC)c1 ... label 0

* * *

Tested on: 874868-142-R-J2-PDC complex spheroids, growth % test/control
experiment description: Anticancer human tumor 874868-142-R-J2-PDC cell line growth inhibition [CLK]; active means viability on the fitted dose curve at most 10% of control; inactive means the rest;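 note: spheroids exposed to the compounds for 7 days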
test settings: second compound 1 µM; first compound 0.0949 µM
Outcome codes: active, inactive

NC(=O)C(=Cn1cnc(-c2cc(C(F)(F)F)cc(C(F)(F)F)c2)n1)c1cncnc1 + CNC(=O)c1ccc(Nc2nc(OC3CCCC3)c3c(-c4ccc5nc(C)oc5c4)c[nH]c3n2)c(OC)c1 ... inactive
CC(C)CC(NC(=O)C(Cc1ccccc1)NC(=O)c1cnccn1)B(O)O (stereo unspecified) + CNC(=O)c1ccc(Nc2nc(OC3CCCC3)c3c(-c4ccc5nc(C)oc5c4)c[nH]c3n2)c(OC)c1 ... active
NC(=O)C(=Cn1cnc(-c2cc(C(F)(F)F)cc(C(F)(F)F)c2)n1)c1cncnc1 + CN1CCN(c2cc(C(=O)Nc3cc4cc(-c5cnn(C)c5)ccc4cn3)ccn2)CC1 ... active
C=CC(=O)Nc1cc(Nc2nccc(-c3cn(C)c4ccccc34)n2)c(OC)cc1N(C)CCN(C)C + CN1CCN(c2cc(C(=O)Nc3cc4cc(-c5cnn(C)c5)ccc4cn3)ccn2)CC1 ... active
C=CC(=O)Nc1cc(Nc2nccc(-c3cn(C)c4ccccc34)n2)c(OC)cc1N(C)CCN(C)C + CNC(=O)c1ccc(Nc2nc(OC3CCCC3)c3c(-c4ccc5nc(C)oc5c4)c[nH]c3n2)c(OC)c1 ... inactive
CC(C)CC(NC(=O)C(Cc1ccccc1)NC(=O)c1cnccn1)B(O)O (stereo unspecified) + CN1CCN(c2cc(C(=O)Nc3cc4cc(-c5cnn(C)c5)ccc4cn3)ccn2)CC1 ... active
